Cited source for all entries: patent US20230416329A1

Target: bovine trypsin (Bos taurus)
Sequence (P00760 24-246): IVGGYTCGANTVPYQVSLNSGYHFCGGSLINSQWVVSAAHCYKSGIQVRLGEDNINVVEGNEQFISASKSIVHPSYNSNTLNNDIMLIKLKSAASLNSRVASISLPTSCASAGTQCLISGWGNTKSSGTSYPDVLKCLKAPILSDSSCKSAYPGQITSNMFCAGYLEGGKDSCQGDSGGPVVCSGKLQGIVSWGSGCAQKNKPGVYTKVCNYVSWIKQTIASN
Assay: Trypsin inhibitory activity of peptides (BApNA hydrolysis, OD405; IC50, Ki, residual activity)
Type: biochemical
Conditions: trypsin 50 nM, BApNA 1.22 mM; read-out: IC50
Bridge positions count the residues as written; N and C are the ends. Square brackets hold non-standard residues; d marks the D form. Peptide text beside a SMILES is read from it. Nle = CCCC[C@H](N)C(=O)O
property name: pIC50
Would you please state pIC50, meaning minus log10 of the concentration in mol/L, as a bare number?

Example entries and their recorded answers appear below.
compound	property name	observed result
CC[C@H](C)[C@@H]1NC(=O)[C@@H]2CCCN2C(=O)[C@@H]2CCCN2C(=O)[C@H]([C@@H](C)CC)NC(=O)[C@H](CO)NC(=O)[C@H](CCCCN)NC(=O)[C@H]([C@@H](C)O)NC(=O)[C@H](C)NC(=O)[C@H](CCCNC(=N)N)NC(=O)[C@H](CO)NC(=O)[C@@H](N)CSSC[C@@H](C(=O)N[C@@H](Cc2ccccc2)C(=O)O)NC1=O [BT75] (H-CSRATKSIPPICF-OH; disulfide 1-12; N-terminus and C-terminus assumed)	pIC50	7.40
CC[C@H](C)[C@@H]1NC(=O)[C@H](CO)NC(=O)[C@H](CCCCN)NC(=O)[C@H]([C@@H](C)O)NC(=O)[C@@H](NC(=O)[C@@H](N)CCCNC(=N)N)CSSC[C@@H](C(=O)N[C@@H](Cc2c[nH]cn2)C(=O)O)NC(=O)[C@H](CCC(N)=O)NC(=O)[C@@H]2CCCN2C(=O)[C@@H]2CCCN2C1=O [BT63] (H-RCTKSIPPQCH-OH; disulfide 2-10; N-terminus and C-terminus assumed)	pIC50	7.05
CC[C@H](C)[C@@H]1NC(=O)[C@@H]2CCCN2C(=O)[C@@H]2CCCN2C(=O)[C@H]([C@@H](C)CC)NC(=O)[C@H](CO)NC(=O)[C@H](CCCCN)NC(=O)[C@H]([C@@H](C)O)NC(=O)[C@H](C)NC(=O)[C@H](CCCNC(=N)N)NC(=O)[C@H](CC(C)C)NC(=O)[C@@H](N)CSSC[C@@H](C(=O)N[C@@H](Cc2ccccc2)C(=O)O)NC1=O [BT72] (H-CLRATKSIPPICF-OH; disulfide 1-12; N-terminus and C-terminus assumed)	pIC50	6.89
CC[C@H](C)[C@@H]1NC(=O)[C@@H]2CCCN2C(=O)[C@@H]2CCCN2C(=O)[C@H]([C@@H](C)CC)NC(=O)[C@H](CO)NC(=O)[C@H](CCCCN)NC(=O)[C@H]([C@@H](C)O)NC(=O)[C@H](CCC(=O)O)NC(=O)[C@H](CCCNC(=N)N)NC(=O)CNC(=O)[C@@H](N)CSSC[C@@H](C(=O)N[C@@H](Cc2ccccc2)C(=O)O)NC1=O [BT58] (H-CGRETKSIPPICF-OH; disulfide 1-12; N-terminus and C-terminus assumed)	pIC50	6.92

Exam item: For the compound shown here, CCCC[C@@H]1NC(=O)[C@H](CO)NC(=O)[C@H](CCCCN)NC(=O)[C@H]([C@@H](C)O)NC(=O)[C@H](C)NC(=O)[C@H](CCCNC(=N)N)NC(=O)CNC(=O)[C@@H](N)CSSC[C@@H](C(=O)N[C@@H](Cc2ccccc2)C(=O)O)NC(=O)[C@H]([C@@H](C)CC)NC(=O)[C@@H]2CCCN2C(=O)[C@@H]2CCCN2C1=O [BT28] (H-CGRATKS[Nle]PPICF-OH; disulfide 1-12; C-terminus assumed) , give the reported pIC50.
Marked response: 6.54
